Assay: yeast display, Sf9 membrane polyspecificity reagent, FACS + sequencing; frameworks hold sequencing errors

ENTRY SEQUENCE	polyreactivity (PSR sort gate)
QVQLVESGGGLVQAGGSLRLICPASGSIFYYYAMGWYRQAPGKERELVAAISYSDDDTYYADSVKGRFTISRDNAKNTVYLQMNSLKPEDTAVYYCAAEFTIAWSYTMDYWVQGTQVTVSS	high polyreactivity
QVQLVESGGGLVQAGGSLRLSCAASGSIFRSNAMGWYRQAPGKERELVAAISSSGGSTYYADSVKGRFTISRDNAKNTVYLQMNSLKPEDTAVYYCNTSVDRGLGYWGQGTQVTVSS	low polyreactivity
QVQLVESGGGIVQAGGSLRLSCAASGRIIRYYAMGWYRQAPGKERELVAAITRGGSTNYADSVKGRFTISRDNAKNTVYLLMNSLKPEDTAVYYCATRQSWYPRWMDYWGQGTQVTVSS	high polyreactivity
QVQLVESGGGLVQAGGSLRLSSAASGRNYPKYAMGSYRQAPGKERELVAAISQRGGSTYYADSVKGRFTISRDNAKNTVYLQMNSLKPEDTAVYYCAASYYRQSGEYDYWGQGTLVTVSS	low polyreactivity
QVQLVDSGGGLVQAGGSLRLSCAASGRTFAWNAMGWYRQAPGKERELVAVITSGGSTNYADSVKGRFTISRDNAKNTVYLQMNSLKPEDTAVYYCATGDGPSLFDYWGQGTQVTVSS	low polyreactivity
QVQLVESGGGLVQAGGSLRLSCAASGSIIYLYAMGWYRQAPGKERELVAAISKSGSRTYYADSVKGRFTISRDNAKNTVYLQMNSLKPEDTAVYYCATPYRVYGEGYYWGQGTQVTVSS	high polyreactivity
QVQLVESGGGLVQAGGSLRLSCAASGSTFTHYAMGWYRQAPGKERELVAAISWGGGTTRYADSVKGRFTISRDNAKNTVYLQMNSLKPEDTAVYYCAKRVRTGSVGNFNYWGQGTQVTVSS	high polyreactivity
QVQLVESGGGLVLAGGRLRLSCADYRSIFAGYAMGWYRQAPGKERELVAAISSSGGRTYYADSVKGRFTISRDNAKNTVYLQMNSLKPEDTAVYYCAVSTYEEEYWGQGTQVTVSS	high polyreactivity
QVQLVESGGGLVQAGGSLRLSCAASGSTFVYYDMGWYRQAPGKERELVADISDSGGSTNYADSVKGRFTISRDNAKNTVYLQMNSLKPEDTAVYYCAADSADPTEYDYWGQGTQVTVSS	low polyreactivity
QVQLVESGGPLVQAGGSLRLSCAASGRTIRYYTMGWYRQAPGKEREFVAAITSTGGTYYADSVKGRFTSSRDNAKNTVYLQRTSLKQEDTGVYYCAATFIQFVVNVQLYDYDYWGQGTQVTVSS	low polyreactivity
QDQLVESGGGLVQAGGSLRLSCAASGSIFWLYTMGWYRQAPGKERELVAAITGSGSSTYYADSVKGRFTISRDNAKNTVYLQMNSLKPEDTAVYYCAAYWSSARRRYDYWGQGTQVTVSS	high polyreactivity

---

Assay: yeast display, Sf9 membrane polyspecificity reagent, FACS + sequencing; frameworks hold sequencing errors
PARAMETER MEASURED: polyreactivity (PSR sort gate)

ENTRY SEQUENCE	REPORTED MEASUREMENT
QVQLVESGGGLVQAGGSLRLSCAASGRTFRNNAMGWYRQAPGKEREFVAVISNTGGSTYYADSVKGRFTISRDNAKNTVYLQMNSLKPEDTAVYYCAVRPRYSQYYYWGQGTQVTVSS	high polyreactivity
QVQLEESGVGVVLAGGSRSLSCAASGRIFQYNAMGWNRQAPGKERELVAAISYRGGSTYYADSVKGRFTISRDNAKYTVYLQLNSLKPEDTAVYYCAVEYPVYYYVEYDYWGQGTQVTVSS	high polyreactivity
QLQLEESGGGLVQAGGSLRLSCAASGSIFDDYAMGWYRQAPGKERELVAAITSGGSTYYADSVKGRFTISRDNAKNTVYLQLNRLKPEDTAVYYRATRYHWSSSFAPVGAYGYWGQGTQVTVSS	low polyreactivity
QVQLVESGGGLVQAGGSLRLSCAASGSIYVYYAKGWYRQAPGKERYLVAAINTSGGSTYYADSVKGRFTISRDNAKNTVYLQMNSLKPEDTAVYYCAATPFASPRLHSFVVSYRYYYWGQGTQVTVSS	low polyreactivity
QVQLVESGGGLVQAGGSLRLSCAASGLTFYSYAMGWYSPAPGKERELVAAITSSGSITYYADSVKGRFTISRDNAKNTVYLQMNSLKPEDTAVYYCAARPYRVRGQRFEGNYWGQGTQVTVSS	high polyreactivity
QVQLVESGGGLVQAGGSLRLSCAASGSTFLHYAMGWYRQAPGKERELVAAISRRGGRTYYADSVKGRFTISRDNAKNTVYLQMNSLKPEDTAVYYCAVDGIRDGYWIFYYWGQGTQVTVSS	low polyreactivity
QVQLVESGGGLVQAGGSLRLSCAASGRIFYNYAMGWYRQAPGKETELVAAISGSGGSTYYADSVKGRFTISRDNAKNTVYLLMNSLKPEDTAVYYCSTSGQQYYSRNFDYWGQGTQVTVSS	low polyreactivity
QVQLVESGGGLVQAGGSLRLSCAPSGITFYGNDMGWYRQAPGKERELVAAISSGGITNYADSVKGRFTISRDNAKNSVYLQMNSLKPEDTAVYYCAKDLLYYHITPDGYTWYLPEDSWGQGTQVTVSS	low polyreactivity
QVQLVESGGGLVQAGGSLRLSCAASGSIFGYNSMGWDRQAAGKERELVAAIYSGGNTYYADSVKGRFTISRDNAKNTVYLQMNSLKPEDTAVYYCAADGYDDSTSRWYEYWGQGSQVTVSS	low polyreactivity
QVQLVESGGGFVQAGGSLRLSCAASGSTFSVYAMGWYRQAPGKERELVATIRRGGSTYADSVKGRFTISRDNAKNTVYLQMNSLKPEDTAVYDCAADAYVSSQPMDYWGQGTQVTVSS	high polyreactivity
QVQLVETGGGLVQAGGSLRLSCAASGSTFPAYTMGWYRQAPGKERELVAAITTGGRTYYADSVKGRFTISRDNAKNTVYLQMNSLKPEDTAVYYCAAKRYCYRSLPYYGIHGWGQGTQVTVSS	high polyreactivity
QVQLVESGGGLVQAGGSLRLSCAASGFTLRAYAMGWYRQAPGKERELVAAITQRGTGTYYADSVKGRFTISRDNAKKTVFLQMNSLKPEDTAVYYCAAEAPRWSNYYYWGQGTQVSVSS	high polyreactivity
QDQLVESGGGLVQAGGSLRLSCAASGFTFVINDMGWYRQAPGKEREMVADITSGGDTYYADSVKGRFTISRDNAKNTVDLQMNSLKPEDTAVYYCAADIYPDWIYLLYGYWGQGTQVSVSS	low polyreactivity
QVQLVESGGGLVQAGGSLRLSCAASGRIFSYYAMGWYRQAPGKERELVAAITSAGGTNYADSVKGRFTISRDNAKNTVYLQMNSLNPEDTAVYYCAAAKRDFVEYDYWGQGTQVTVSS	low polyreactivity
QVKLVESGGGLVQAGGSLRLSCAASGRTFIYYAMGWYRQAPGKERELVAGITYSVGSTYYADSVKGRFTISRDNAKNTVYLQMNSLKPEVTAVYYCAAKPVGTYSRPHDYWGQGTQVTVSS	low polyreactivity
QVQLVQSGGGLVQAGGSLSLSCAASGSIFPGYTRGWYRQAPGKERELVAAISRRGGSTYYADSVKGRFTISRDNAKNPGYLQMNSLKPEDTAVYYCAKVPDYRFEYWGQGTQVTVSS	high polyreactivity
QVQLVESGGGLVQAGGSLRLTCAASGSIFWYNAMGWYRQAPGKERELVAAIKWSGGSTFYADSVKGGFTISRDTAKNNVYLQMNSLKPEDTAVYYCNAPPLYRDEFWGQGTQVTVSS	high polyreactivity
QVQLVESGGGLVQAGGSLRLSCAASGSTFFKYAMGWYRPAPRKERELVAAISYSGGSTYYADSVKGRFTISRDNAKNTVYLQMNSLKPEDTAVYYCAARVQNRYRPYYYWGQGTQVTVSS	high polyreactivity
QVQLVESGGGLVQAGGSIRLSCAASRFTFGPYAMGWYRQAHVKERELVAAITIRGGSPYADSVKGRFTISRDNAKNTVYLQMNSLKPEDTAVYYCATVRALEYNYWGQGTQVTVSS	low polyreactivity
QVQLVESGGGLVQAGGSLRLSCAASGSIFPEYAMGWYRQAPGKERELVASISSGGSSTYYADSVKGRFTISRDNAKNTVYLQMNSLKPEDTAVYYCARRRSYKRRFDYWGQGTQVTVSS	low polyreactivity
QVQLEESGGGLVQAGGSLRLSCAASGITFLNYAMGWYRQAPGKERELVAAISWSGGRTYYADSVKGRFTISRDNAKNTVYLQMNSLKPEDTAVYYCAVRGSWYSEHNYWGQGTQVTVSS	high polyreactivity
